All values here come from ChEMBL document CHEMBL4689842.

Tested on: Fibroblast
assayText: Multiplex assay against human fibroblast
Format: toxicity, cell-based
conditionParameters: 48 h, 1 µM, compound concentration 1 uM, replicate 2
quantityMeasured: Population Normal (%)
# unit: % | format: bare number

Below: 3 molecules and their reported Population Normal (%).
CNc1nc(NCc2ccc(NS(C)(=O)=O)cc2Cl)cc(-c2ccccn2)n1 :: 91
COc1cccc([C@@H](C)NCCCc2ccccc2Cl)c1.Cl [TECALCET HYDROCHLORIDE] :: 87
COc1ncc(-c2ccc3nccc(-c4ccnnc4)c3c2)cc1NS(=O)(=O)c1ccc(F)cc1F :: 86

Consider the molecule CC(C)(O)CNc1ncc(-c2ccnc(Nc3ccnc(Cl)c3)n2)c(CC2CC2)n1 and give its measured Population Normal (%).
89

Would you mind telling me what Population Normal (%) value was observed for COc1cc(-n2cnc3cc(-c4ccc(Cl)cc4)sc3c2=O)ccc1OCCN1CCCC1 ?
84

Any idea what Population Normal (%) was measured for CN1CCCC(n2nc(Cc3ccc(Cl)cc3)c3ccccc3c2=O)CC1.Cl (stereo unspecified) [AZELASTINE HYDROCHLORIDE] ?
91

---

Test system: HEK-293T
assayText: Incucyte cell viability with HEK293T; also: filed as whole numbers so only -1 and 0 and 1 occur
Format: toxicity, cell-based
conditionParameters: human, 0 h, 10 µM, compound concentration 10 uM, replicate number 2, timepoint 0 hours
quantityMeasured: Growth Rate
Give your answer as a number; write no unit.

Here are 8 molecules together with their reported answers.
CCCCN1CCC(COC(=O)c2cc(Cl)c(N)c3c2OCCO3)CC1.Cl :: 0
CC(C)(C)NCC(O)COc1cccc2[nH]c(=O)[nH]c12.Cl (centres undefined) :: 0
C[C@@H](NCCCc1cccc(C(F)(F)F)c1)c1cccc2ccccc12.Cl [CINACALCET HYDROCHLORIDE] :: 0
CN1CCCC(n2nc(Cc3ccc(Cl)cc3)c3ccccc3c2=O)CC1.Cl (centres undefined) [AZELASTINE HYDROCHLORIDE] :: 1
CC(C)(O)CNc1ncc(-c2ccnc(Nc3ccnc(Cl)c3)n2)c(CC2CC2)n1 :: 1
CNc1nc(NCc2ccc(NS(C)(=O)=O)cc2Cl)cc(-c2ccccn2)n1 :: 0
Cc1sc2c(c1C)C(c1ccc(Cl)cc1)=N[C@@H](CC(=O)OC(C)(C)C)c1nnc(C)n1-2 :: 1
Cc1nc(C(=O)N2CCC[C@H]2Cc2nnc(-c3ccccc3)o2)c(-c2ccccc2F)s1 :: 0

Which value of Growth Rate has been reported for Cc1cccc(-c2cnc3occ(-c4ccc(C(=O)O)c(C5CCCC5)c4)c3c2)c1 in the records?
0

So what does the record say about Growth Rate for CNCCC(Oc1ccc(C(F)(F)F)cc1)c1ccccc1.Cl (centres undefined) [FLUOXETINE HYDROCHLORIDE] ?
0

Given Cc1nc(C2CCN(C(=O)c3ccc(OC(F)(F)F)cc3N)CC2)c2ncc(N3CCN(C)CC3)cc2n1 [BAY-693] , state its recorded Growth Rate.
1

Need Growth Rate, item Cc1cc(F)c(C(=O)Nc2cccc(-c3nncn3C(C)C)n2)cc1-n1cnc(C2CC2)c1 [SELONSERTIB]
1

Consider the molecule CN1CCN(c2ccc(OC(F)(F)F)c(Nc3ncc4c(n3)-c3c(c(C(N)=O)nn3CCO)CC4)c2)CC1 [ONVANSERTIB] and give its measured Growth Rate.
0

Returns the measured Growth Rate for the input molecule. Input: CN1C(=O)[C@@H](N2CCc3cn(Cc4ccccc4)nc3C2=O)COc2ccccc21 [TP-030-1]
1
